# assay_notes: Solubility testing in bio-relevant media (Form III)
# Assay type: physicochemical
# details: thermodynamic from solid; FaSSIF, pH 6.5; 37° C.; 4 h
readout: solubility at 4 h (µg/mL)
Give bare numbers, in µg/mL.

Problem: Provide one value: measured solubility at 4 h of C=CC(=O)N1CCC[C@@H](c2c(F)cc(C(N)=O)c3[nH]c4c(c23)CCCCC4)C1 [Form III]
Solution: 5

* * *

# assay_notes: Solubility testing in vehicle, HPLC (Form III)
# Format: physicochemical
# details: oil or lipid, thermodynamic from solid; Oleic acid; 45° C.; 24 h; pH 3.3; loading 15 mg/mL
readout: solubility at 24 h (mg/mL)
Give bare numbers, in mg/mL.

Problem: Provide one value: measured solubility at 24 h of C=CC(=O)N1CCC[C@@H](c2c(F)cc(C(N)=O)c3[nH]c4c(c23)CCCCC4)C1 [Compound 1]
Solution: 14

Numbers sourced from patent US20250243176A1.
